experiment: Microsomal stability, human liver microsomes; assay type: in vitro ADME; conditions: 0.5 mg/mL protein, read-out: Microsomal stability (T1/2 min) Human
This listing pairs compounds with measured half-life at 0.5 µM.
observedProperty: half-life at 0.5 µM

> print(dat)
                                   compound     observedproperty     datavalue
1  O=C(c1ccncc1)C1CCCN(Cc2ccccc2)C1 (stereo not drawn)  half-life at 0.5 µM  10 to 30 min
2  O=C(c1ncccn1)C1CCCN(Cc2ccccc2)C1 (stereo not drawn)  half-life at 0.5 µM      ≥ 30 min
3  O=C(c1ccc(Cl)cc1)C1CCCN(C(=O)c2ccccc2)C1 (stereo not drawn)  half-life at 0.5 µM  10 to 30 min

###

test: Microsomal stability, rat liver microsomes; format: in vitro ADME; conditions: 0.5 mg/mL protein, read-out: Microsomal stability (T1/2 min) Rat
This listing pairs molecules with measured half-life at 0.5 µM.
observedProperty: half-life at 0.5 µM

> print(dat)
                                   molecule     datavalue
1  O=C(c1ccncc1)C1CCCN(Cc2ccccc2)C1 (stereo not drawn) [IV-6]      < 10 min
2  O=C(c1ncccn1)C1CCCN(Cc2ccccc2)C1 (stereo not drawn) [IV-7]  10 to 30 min
3  O=C(c1ccc(Cl)cc1)C1CCCN(C(=O)c2ccccc2)C1 (stereo not drawn) [Compound V-4]      < 10 min

###

target: CYP3A4 (Homo sapiens (Human), UniProt P08684); test: CYP inhibition, CYP3A4; type: in vitro ADME; details: CYP3A4^a, footnote not given; CYP3A4 metabolites monitored: 1-hydroxy midazolam, 6-β-hydroxy testosterone; read-out: CYP IC50 uM CYP3A4^a
Sequence (P08684 whole entry): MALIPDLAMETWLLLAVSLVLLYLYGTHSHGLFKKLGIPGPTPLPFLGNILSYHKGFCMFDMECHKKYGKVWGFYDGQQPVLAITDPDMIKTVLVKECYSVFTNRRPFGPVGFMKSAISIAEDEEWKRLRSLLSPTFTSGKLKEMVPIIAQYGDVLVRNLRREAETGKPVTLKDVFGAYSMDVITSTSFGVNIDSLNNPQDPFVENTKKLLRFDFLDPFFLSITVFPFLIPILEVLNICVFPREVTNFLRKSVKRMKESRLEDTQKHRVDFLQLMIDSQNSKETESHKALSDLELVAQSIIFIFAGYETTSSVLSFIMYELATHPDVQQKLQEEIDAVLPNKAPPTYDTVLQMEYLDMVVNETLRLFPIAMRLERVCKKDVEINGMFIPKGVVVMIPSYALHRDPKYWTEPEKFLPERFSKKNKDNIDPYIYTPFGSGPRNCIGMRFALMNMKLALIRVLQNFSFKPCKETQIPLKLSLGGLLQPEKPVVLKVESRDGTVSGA
This listing pairs compounds with measured IC50.
observedProperty: IC50

> print(dat)
                                   compound  observedproperty  datavalue
1  O=C(c1ccc(Cl)cc1)C1CCCN(C(=O)c2ccccc2)C1 (stereo not drawn)              IC50    > 50 µM
2  O=C(c1ccncc1)C1CCCN(Cc2ccccc2)C1 (stereo not drawn)              IC50     ≤ 5 µM
3  O=C(c1ncccn1)C1CCCN(Cc2ccccc2)C1 (stereo not drawn)              IC50    > 50 µM

###

This listing pairs compounds with measured IC50.
biological target: CYP3A4 (Homo sapiens (Human), UniProt P08684); experiment: CYP inhibition, CYP3A4; assay type: in vitro ADME; conditions: footnote not given; CYP3A4 metabolites monitored: 1-hydroxy midazolam, 6-β-hydroxy testosterone; read-out: CYP IC50 uM CYP3A4^b
observedProperty: IC50

> print(dat)
                                   compound  observedproperty    datavalue
1  O=C(c1ccncc1)C1CCCN(Cc2ccccc2)C1 (stereo not drawn) [IV-6]              IC50   5 to 20 µM
2  O=C(c1ncccn1)C1CCCN(Cc2ccccc2)C1 (stereo not drawn) [IV-7]              IC50      > 50 µM
3  O=C(c1ccc(Cl)cc1)C1CCCN(C(=O)c2ccccc2)C1 (stereo not drawn) [Compound V-4]              IC50  20 to 50 µM

###

target: hERG (IKr current) (Homo sapiens (Human), UniProt Q12809); assay: hERG inhibition, patch clamp (Port-a-Patch) on HEK cells stably transfected with the hERG clone, IKr current; format: cell-based; details: human, HEK cells stably transfected with the hERG clone, pH 7.4, IKr current, 1 μM; read-out: Percent Inhibition Trial I
Sequence (Q12809 whole entry): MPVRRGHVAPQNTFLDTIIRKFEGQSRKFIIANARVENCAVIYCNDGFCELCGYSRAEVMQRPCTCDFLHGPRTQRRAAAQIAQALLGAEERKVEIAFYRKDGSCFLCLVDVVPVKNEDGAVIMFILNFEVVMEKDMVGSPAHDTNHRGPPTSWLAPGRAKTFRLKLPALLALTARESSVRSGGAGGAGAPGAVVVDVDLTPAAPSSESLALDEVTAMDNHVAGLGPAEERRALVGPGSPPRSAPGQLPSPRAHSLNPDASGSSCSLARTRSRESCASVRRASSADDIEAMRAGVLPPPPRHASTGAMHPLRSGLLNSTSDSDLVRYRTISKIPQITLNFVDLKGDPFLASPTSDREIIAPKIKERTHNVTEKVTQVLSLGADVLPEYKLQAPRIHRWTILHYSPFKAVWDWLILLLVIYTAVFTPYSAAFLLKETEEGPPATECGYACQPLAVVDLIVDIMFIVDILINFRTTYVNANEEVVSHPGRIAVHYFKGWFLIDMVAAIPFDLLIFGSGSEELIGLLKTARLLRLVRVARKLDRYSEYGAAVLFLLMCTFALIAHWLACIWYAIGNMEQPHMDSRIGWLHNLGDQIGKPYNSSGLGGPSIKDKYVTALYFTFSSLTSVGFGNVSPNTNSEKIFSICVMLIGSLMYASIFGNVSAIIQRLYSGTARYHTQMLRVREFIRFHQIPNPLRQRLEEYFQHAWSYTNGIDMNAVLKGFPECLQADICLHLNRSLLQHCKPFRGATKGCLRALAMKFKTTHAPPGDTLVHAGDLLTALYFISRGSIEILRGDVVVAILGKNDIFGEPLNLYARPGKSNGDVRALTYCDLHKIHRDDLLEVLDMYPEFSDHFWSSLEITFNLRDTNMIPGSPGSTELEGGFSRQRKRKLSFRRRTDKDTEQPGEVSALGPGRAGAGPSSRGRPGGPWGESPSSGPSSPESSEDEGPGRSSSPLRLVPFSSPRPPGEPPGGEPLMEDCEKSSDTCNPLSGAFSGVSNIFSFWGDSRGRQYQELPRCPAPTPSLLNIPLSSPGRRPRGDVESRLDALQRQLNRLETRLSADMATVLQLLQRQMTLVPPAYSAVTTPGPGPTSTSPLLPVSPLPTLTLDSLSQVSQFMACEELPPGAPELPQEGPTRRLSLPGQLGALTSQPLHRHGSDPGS
This listing pairs compounds with measured inhibition at 1 µM.
observedProperty: inhibition at 1 µM (%)

> print(dat)
                                   compound  valueunits  datavalue
1  O=C(c1ccncc1)C1CCCN(Cc2ccccc2)C1 (stereo not drawn) [IV-6]           %          0
2  O=C(c1ccc(Cl)cc1)C1CCCN(C(=O)c2ccccc2)C1 (stereo not drawn) [Compound V-4]           %       16.2
3  O=C(c1ncccn1)C1CCCN(Cc2ccccc2)C1 (stereo not drawn) [IV-7]           %          0

Cited source: patent US11505526B2
